- test_target: Solute carrier family 2, facilitated glucose transporter member 1 (Homo sapiens) (UniProt P11166)
- Sequence (P11166 whole entry): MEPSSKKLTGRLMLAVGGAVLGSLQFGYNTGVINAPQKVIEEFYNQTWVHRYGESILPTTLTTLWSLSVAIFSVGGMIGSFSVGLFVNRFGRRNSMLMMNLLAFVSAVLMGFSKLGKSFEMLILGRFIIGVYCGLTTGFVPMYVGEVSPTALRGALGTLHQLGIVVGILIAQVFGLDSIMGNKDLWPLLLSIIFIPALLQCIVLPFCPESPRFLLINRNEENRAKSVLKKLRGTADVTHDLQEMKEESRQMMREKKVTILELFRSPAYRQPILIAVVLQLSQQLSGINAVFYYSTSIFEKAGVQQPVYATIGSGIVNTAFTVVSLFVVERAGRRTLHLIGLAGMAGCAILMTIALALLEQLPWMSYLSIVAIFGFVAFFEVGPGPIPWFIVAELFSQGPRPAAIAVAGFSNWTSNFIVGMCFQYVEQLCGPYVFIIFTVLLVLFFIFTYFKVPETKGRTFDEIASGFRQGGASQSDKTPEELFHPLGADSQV
- protocol_text: ST_JUDE_LEISH: Cytotoxicity at 2uM final concentration against transgenic Leishmania Mexicana promastigotes LmGLUT1 that are glucose transport deficient and complemented with the human glucose transporter GLUT1. Activity is measured by DNA content using SYBR green in vitro
- Type: functional
experimental_endpoint: inhibition (%)
Numbers only, in %.

Guide cases for inhibition, answers given:
[[record]]
molecule = "O=C(Nc1ccc(N2CCCN(Cc3cccc(F)c3)CC2)cc1)c1ccccc1"
observed_result = 0.26

[[record]]
molecule = "CCOC(=O)c1c(NC(=O)c2ccccc2)sc2c(O)c(CN(CC)CC)ccc12"
observed_result = 12

[[record]]
molecule = "O=C(Nc1cccc(-c2ccc(-c3nc4cc(C(F)(F)F)ccc4[nH]3)cc2)c1)c1csnn1"
observed_result = 5.44

[[record]]
molecule = "CCCN(CCC)C(C)CCC(C)Nc1c2ccc(Cl)cc2nc2ccc(OC)cc12 (stereo not given)"
observed_result = 1.91

[[record]]
molecule = "CCc1ccccc1N1CCN(CCCC(=O)c2ccc(NC(=O)c3ccc(Cl)cc3)cc2)CC1"
observed_result = 3.6


I need inhibition for every entry listed below, if you could help.
1. COc1ccc(-c2onc(C(F)(F)F)c2-c2cc3ccccc3o2)c(O)c1
2. CC(C)Cc1nc2nc(N)nc(N)c2cc1C(C)C
3. Cc1cccc2nc(-c3cccc(-c4cccc(NC(=O)CN5CCN(C)CC5)c4)c3)[nH]c12
4. C#CCNCc1ccc(-c2ccc(-c3nc4cc(C(F)(F)F)ccc4[nH]3)s2)cc1
5. COc1ccc(-c2csc3ncnc(Cl)c23)cc1OC

-- reply
[0.61, 1.84, 8.23, 0.44, 3.91]
